# Tested on: yellow nutsedge (Cyperus esculentus)
# Protocol Summary: Test B pre-/postemergence plant response
# Assay type: in vivo
# Assay Setup: Postemergence, 31 g ai/ha; 0 to 100 scale (0 no effect, 100 complete control)
Assay Metric: Plant response rating, Nutsedge, Yellow
Note: the reply should be a number with no unit written.

COCCCn1c(-c2cc(F)cc(F)c2)ncc(C(=O)C2=C(O)C3CCC(C3)C2=O)c1=O (stereo not shown) [Compound 244] | 45
O=C1CCCC(O)=C1C(=O)c1cnc(-c2ccccc2)n(C2CC[S+]([O-])CC2)c1=O (mixture of isomers) [Compound 169] | 0
O=C1CCCC(O)=C1C(=O)c1cnc(C2CC2)n(C2CCCCC2)c1=O [Compound 160] | 65

Here is another compound to look at.
In: What does the record list as Plant response rating, Nutsedge, Yellow for CCCc1ncc(C(=O)C2=C(O)CCCC2=O)c(=O)n1-c1ccccc1 [Compound 217] ?
Out: 10

Data provenance: patent US8952024B2
